- study_target: SARS-CoV-2 S1-RBD fused to human Fc (S1-RBD-Fc) (SARS-CoV-2 Wuhan; human)
- test_description: SPR, antigen on chip
Criterion: kon strictly under 700000 M⁻¹ s⁻¹. Met: t. Not met: f.

These recorded examples may help you get a feel for the data.
binder	class_name
NRCoV2-17 VHH (VHH) VHH: EVQLQQSGGGLVQTGGSLRLSCAAAGSPFSQLAMSWYRQISGKERAWVASISPTGNRSYSKIAKGRFTISRDNAKNTVTLQMTSLKPEDTAAYICQAANVNGGDYWGQGTQVTVSS	t
NRCoV2-1d VHH (VHH) VHH: EVQLVESGGGSVQPGGSLRLSCAASGSTLDYYAIGWFRQAPGKEREWVSSVSSSDGNTLYADSVKGRFTISRDNAKNTVYLQMNSLKAEDTAVYVCAADYSMRPFAVGRWHRDYEYWGQGTQVTVSS	t
NRCoV2-14 VHH (VHH) VHH: EVQLVSSGGGLVQAGGSLRLSCEASGTTFSHYAVGWYRQAPGKQREWVASISVFGSTTYGGSVAGRFTISRDNDKNTVDLQMNSLKPEDTAVYYCHAVNADIGGDYWGQGTQVTVSS	t
NRCoV2-20 VHH (VHH) VHH: EVQLQQSGGGLVQPGGSLRLSCAASGRTFSNYVVGWFRQAPQAPGKDHEFVAVISGSDTETYYADSVKGRFTISRDNAKNTVYLQMNSLKPEDTAVYYCAADRGMSYYYTRATEYYYWGQGTQVTVSS	f
NRCoV2-07 VHH (VHH) VHH: QVQLVQSGGGLVQPGGSLRLSCAASGVTLDYYAIGWFRQAPGKEREAVSCISSNGRRNHYVASVRGRFTISRDNAKSTVYLQMNSLKPEDTAVYYCAAVQDVHGDNYYCTSPNEYNVWGQGTQVTVSS	t

For NRCoV2-04 VHH (VHH) VHH: AVQLVDSGGGLVQPGGSLRLSCAASGSPFSNVVMAWYRQAPGKQRERVAFISGGGIADYIMSVKGRFTISRDNAKNTVYLQMNSLKPEDTAVYYCWSSYESTWGQGTQVTVSS , is the recorded kon below the cut-off of 700000 M⁻¹ s⁻¹?
f

Could you please tell me whether kon recorded for NRCoV2-10 VHH (VHH) VHH: QLQLQESGGGLVQPGGSLTLSCAASGNTFSRSNMHWYRQAPGAQREWVAAISSRGISTYAYSAKGRFTISRDNAKNTVSLQMNSLKPEDTAVYYCYAADDLGDYWGQGTQVTVSS is less than 700000 M⁻¹ s⁻¹?
t
